Exercise: state measured AC50 for each of the molecules provided.
# Test system: TFEB
# Protocol Details: TFEB nuclear translocation assay, HeLa wt cells
# Assay type: cell-based
# Run Conditions: Homo sapiens, HeLa, 2 h, 2 hrs compound treatment, Table 1 does not say HeLa wt or TRPML1 KO

Task: # query: AC50 of entry CS(=O)(=O)c1ccc(S(=O)(=O)Nc2ccc(F)cc2N2CCC(c3c(F)cccc3F)CC2)cc1
Output: 2010 to 8000 nM

Task: Reported AC50, molecule CC(C)(C)C(=O)N1CCN(c2ccccc2NS(=O)(=O)c2ccc(S(C)(=O)=O)cc2)CC1 : ____
Output: ≥ 10000 nM

Task: Quick one: AC50 of CN1CC2(CCN(c3ccccc3NS(=O)(=O)c3ccc(S(=N)(=O)N(C)C)cc3)CC2)c2ccc(F)cc21 (stereo not shown) ?
Output: ≤ 2000 nM

Task: Could you tell me which AC50 is on file for COc1ccc(S(=O)(=O)Nc2ccccc2N2CCC(c3ccc(Cl)cc3F)CC2)cc1 ?
Output: ≤ 2000 nM
